- System: RGS4
- Measurement notes: FCPIA: Gαo binding to RGS4
- Condition info: Table 3
Parameter threshold = -1. Response is 1 (yes) when RGS4 Hill Slope meets or exceeds it, else 0 (no).

| Molecule | Discrete label |
| --- | --- |
| COc1ccc(Cn2c(=O)sn(-c3ccc(OC)cc3)c2=O)cc1 [S26] | 0 (no) |
| O=c1sn(-c2ccccc2)c(=O)n1Cc1cccc(Cl)c1 [S14] | 0 (no) |
| O=c1sn(-c2cccc(C(F)(F)F)c2)c(=O)n1Cc1ccccc1 [CCG-203772] | 0 (no) |
| O=c1sn(-c2cccc(Cl)c2)c(=O)n1Cc1cccc(Cl)c1 [S17] | 0 (no) |
| CCCCn1sc(=O)n(Cc2ccc(F)cc2)c1=O [CCG-203765] | 1 (yes) |
| Cc1ccc(Cn2sc(=O)n(Cc3ccc(Cl)c(Cl)c3)c2=O)cc1 [S33] | 0 (no) |
| Cc1cccc(-n2sc(=O)n(Cc3cccc(Cl)c3)c2=O)c1 [S16] | 0 (no) |
| O=c1sn(-c2ccc(Cl)c(Cl)c2)c(=O)n1Cc1ccc(Cl)c(Cl)c1 [S32] | 1 (yes) |
| O=c1sn(-c2ccc(Cl)cc2)c(=O)n1Cc1ccc(Cl)cc1 [S5] | 0 (no) |
| Cc1ccc(-n2sc(=O)n(Cc3cccc(Cl)c3)c2=O)cc1 [CCG-203777] | 1 (yes) |
| COc1ccc(-n2sc(=O)n(Cc3ccccc3)c2=O)cc1 [CCG-203746] | 0 (no) |
| O=c1sn(-c2ccccc2)c(=O)n1Cc1ccccc1 [CCG-203722] | 0 (no) |

----------
- Test system: RGS8 (Homo sapiens (Human), UniProt P57771)
- Sequence (P57771 other isoform, or with tags, fused parts or gaps): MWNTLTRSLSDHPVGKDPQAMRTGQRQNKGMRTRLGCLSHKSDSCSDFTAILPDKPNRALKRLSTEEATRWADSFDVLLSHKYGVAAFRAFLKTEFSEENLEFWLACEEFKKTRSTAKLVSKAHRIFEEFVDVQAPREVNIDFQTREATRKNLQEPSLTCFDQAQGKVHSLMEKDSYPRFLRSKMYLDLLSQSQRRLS
- Measurement notes: FCPIA: Gαo binding to RGS8
- Condition info: Table 6, FCPIA; read-out: RGS8 IC50
pIC50: −log10 of the molar value.
Below, each entry is listed with its recorded pIC50.
Observed property: pIC50

| Molecule | Observed property | Reported relation | Numeric result |
| --- | --- | --- | --- |
| CN(C)c1ccc(-n2sc(=O)n(Cc3ccc(F)cc3)c2=O)cc1 [S2] | pIC50 | = | 4.99 |
| O=c1sn(-c2ccc(Cl)c(Cl)c2)c(=O)n1Cc1ccc(Cl)c(Cl)c1 [S32] | pIC50 | = | 3.90 |
| Cc1cccc(Cn2c(=O)sn(-c3ccc(C(C)(C)C)cc3)c2=O)c1 [S20] | pIC50 | = | 4.75 |
| O=c1sn(-c2ccccc2)c(=O)n1Cc1ccc(F)cc1 [CCG-203726] | pIC50 | = | 5.21 |
| COc1ccc(Cn2c(=O)sn(-c3ccc(OC)cc3)c2=O)cc1 [S26] | pIC50 | = | 4.75 |
| Cc1ccc(-n2sc(=O)n(Cc3ccc(C(C)(C)C)cc3)c2=O)cc1 [S34] | pIC50 | < | 4.00 |
| Cc1ccc(-n2sc(=O)n(Cc3ccc(Cl)cc3)c2=O)cc1 [CCG-203731] | pIC50 | = | 4.93 |
| COc1ccc(Cn2c(=O)sn(-c3ccc(C)cc3)c2=O)cc1 [CCG-203754] | pIC50 | = | 3.51 |
| Cc1cccc(Cn2c(=O)sn(-c3cccc(Cl)c3)c2=O)c1 [S22] | pIC50 | = | 4.51 |
| O=c1sn(-c2ccc(Cl)cc2)c(=O)n1Cc1ccc(Cl)c(Cl)c1 [S30] | pIC50 | = | 4.78 |
| CCn1sc(=O)n(C)c1=O [CCG-203758] | pIC50 | = | 4.43 |
| O=c1sn(-c2cccc(Cl)c2)c(=O)n1Cc1cccc(Cl)c1 [S17] | pIC50 | = | 4.68 |
| Cc1ccc(Cn2c(=O)sn(-c3ccc(Cl)cc3)c2=O)cc1 [S10] | pIC50 | = | 4.89 |
| CC(C)(C)c1ccc(Cn2c(=O)sn(-c3ccc(C(C)(C)C)cc3)c2=O)cc1 [S36] | pIC50 | < | 4.00 |
| Cc1ccc(-n2sc(=O)n(Cc3cccc(C)c3)c2=O)cc1 [CCG-203782] | pIC50 | = | 5.00 |
| O=c1sn(-c2ccccc2)c(=O)n1Cc1ccccc1 [CCG-203722] | pIC50 | = | 5.25 |
| Cc1ccc(-n2sc(=O)n(Cc3ccccc3)c2=O)cc1 [CCG-203724] | pIC50 | = | 5.12 |
| Cc1cccc(Cn2c(=O)sn(-c3cccc(C(F)(F)F)c3)c2=O)c1 [S23] | pIC50 | = | 4.80 |
| Cc1ccc(Cn2sc(=O)n(Cc3ccc(C)cc3)c2=O)cc1 [S13] | pIC50 | = | 4.02 |
| CC(C)(C)c1ccc(-n2sc(=O)n(Cc3cccc(Cl)c3)c2=O)cc1 [S15] | pIC50 | = | 4.49 |
| Cc1cccc(Cn2c(=O)sn(-c3cccc(C)c3)c2=O)c1 [S21] | pIC50 | = | 4.98 |
| COc1ccc(-n2sc(=O)n(Cc3ccc(Cl)c(Cl)c3)c2=O)cc1 [S31] | pIC50 | = | 5.23 |
| CC(C)(C)c1ccc(-n2sc(=O)n(Cc3ccccc3)c2=O)cc1 [S3] | pIC50 | = | 4.76 |
| Cc1ccc(CN2C(=O)CN(c3ccc(C)cc3)C2=O)cc1 [compound 14] | pIC50 | < | 4.00 |
| O=c1sn(-c2ccc(Cl)c(Cl)c2)c(=O)n1Cc1ccc(Cl)cc1 [S7] | pIC50 | = | 4.36 |
| O=c1sn(-c2ccc(Cl)c(Cl)c2)c(=O)n1Cc1ccccc1 [CCG-203725] | pIC50 | = | 4.88 |
| Cc1ccc(-n2sc(=O)n(C)c2=O)cc1 [CCG-203759] | pIC50 | = | 5.08 |
| CCn1sc(=O)n(CCOC)c1=O [CCG-203920] | pIC50 | = | 4.44 |
| O=C1C=C(Br)C(=O)N1Cc1ccccc1 [S37, 1-benzyl-3-bromo-1H-pyrrole-2,5-dione] | pIC50 | = | 3.84 |
| CCn1sc(=O)n(Cc2ccc(F)cc2)c1=O [CCG-203766] | pIC50 | = | 4.73 |
| Cc1ccc(-n2sc(=O)n(CC(C)C)c2=O)cc1 [CCG-203761] | pIC50 | = | 5.11 |
| CCCCn1c(=O)sn(-c2ccc(C)cc2)c1=O [CCG-203767] | pIC50 | = | 5.02 |
| CCn1sc(=O)n(CC(C)C)c1=O [CCG-203762] | pIC50 | = | 4.15 |
| COc1ccc(-n2sc(=O)n(Cc3ccc(F)cc3)c2=O)cc1 [CCG-203735] | pIC50 | = | 4.94 |
| O=c1sn(-c2ccc(Cl)cc2)c(=O)n1Cc1ccc(Cl)cc1 [S5] | pIC50 | = | 4.90 |
| COc1ccc(Cn2c(=O)sn(-c3ccccc3)c2=O)cc1 [S24] | pIC50 | = | 5.14 |
| COc1ccc(Cn2c(=O)sn(Cc3ccc(C)cc3)c2=O)cc1 [S28] | pIC50 | = | 4.03 |
